Target Entity: T1, cynomolgus monkey IL-17A (cynomolgus monkey, UniProt A0A2K5TTB0 24-155)
T1 construct: biotinylated in the ELISA; also called cyno IL-17; Cyno IL-17A
T1 sequence (A0A2K5TTB0 entry or part of it): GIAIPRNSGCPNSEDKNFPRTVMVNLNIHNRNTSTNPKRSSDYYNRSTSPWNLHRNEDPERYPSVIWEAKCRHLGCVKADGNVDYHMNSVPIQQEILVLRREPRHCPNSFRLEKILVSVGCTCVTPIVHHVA
Experiment Notes: SPR (Biacore 3000), antibody captured by anti-Fc, antigen in solution;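 note: purified recombinant IL-17 antigens flowed over captured antibodies in HBS-EP buffer, global Langmuir one-to-one fit of association and dissociation phases, KD derived from koff over kon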
Measurement Type: pKd
Numbers only, as −log10 of the molar value.

>  <Binder>
IL17-h5C5.15 (antibody, V domains shown, IgG; constant regions not specified; also called h5C5.15 (VH.1b-Vk.3a)) VH: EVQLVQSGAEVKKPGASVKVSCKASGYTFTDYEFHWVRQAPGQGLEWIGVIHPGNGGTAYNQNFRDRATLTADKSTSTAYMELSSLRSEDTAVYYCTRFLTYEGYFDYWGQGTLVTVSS VL: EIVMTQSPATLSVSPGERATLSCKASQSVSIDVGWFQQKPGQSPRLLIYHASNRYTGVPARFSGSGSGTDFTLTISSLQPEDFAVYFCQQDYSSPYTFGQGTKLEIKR

>  <pKd>
9.45

$$$$
>  <Binder>
IL17-h5C5.14 (antibody, V domains shown, IgG; constant regions not specified; also called h5C5.14 (VH.1-Vk.3a)) VH: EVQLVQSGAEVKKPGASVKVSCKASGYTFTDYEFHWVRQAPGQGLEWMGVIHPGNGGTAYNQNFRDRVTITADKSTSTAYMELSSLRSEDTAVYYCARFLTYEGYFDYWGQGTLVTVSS VL: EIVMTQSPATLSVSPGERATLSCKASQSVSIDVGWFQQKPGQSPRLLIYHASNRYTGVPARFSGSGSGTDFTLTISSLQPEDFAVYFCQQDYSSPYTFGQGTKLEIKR

>  <pKd>
9.61

$$$$
>  <Binder>
IL17-h5C5.9 (antibody, V domains shown, IgG; constant regions not specified; also called h5C5.9 (VH.1b-Vk.1a)) VH: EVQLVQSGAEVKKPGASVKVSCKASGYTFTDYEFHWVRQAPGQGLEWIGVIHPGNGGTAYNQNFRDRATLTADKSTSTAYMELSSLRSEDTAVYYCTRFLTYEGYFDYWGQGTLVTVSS VL: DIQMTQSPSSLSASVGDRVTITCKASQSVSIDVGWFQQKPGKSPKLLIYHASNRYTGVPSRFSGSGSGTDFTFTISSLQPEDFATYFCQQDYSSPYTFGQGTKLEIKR

>  <pKd>
9.64

$$$$
>  <Binder>
IL17-h10F7.6 (antibody, V domains shown, IgG; constant regions not specified; also called h10F7.6 (VH.1a-Vk.1a)) VH: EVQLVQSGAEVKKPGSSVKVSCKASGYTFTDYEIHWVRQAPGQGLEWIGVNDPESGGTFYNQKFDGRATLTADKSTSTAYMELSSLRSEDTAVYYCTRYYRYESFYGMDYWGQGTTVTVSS VL: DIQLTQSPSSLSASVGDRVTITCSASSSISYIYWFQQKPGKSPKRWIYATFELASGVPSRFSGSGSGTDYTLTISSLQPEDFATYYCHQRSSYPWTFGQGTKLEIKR

>  <pKd>
9.66

$$$$

# input for lookup
Quick note, pKd for IL17-h10F7.11 (antibody, V domains shown, IgG; constant regions not specified; also called h10F7.11 (VH.1a-Vk.2a)) VH: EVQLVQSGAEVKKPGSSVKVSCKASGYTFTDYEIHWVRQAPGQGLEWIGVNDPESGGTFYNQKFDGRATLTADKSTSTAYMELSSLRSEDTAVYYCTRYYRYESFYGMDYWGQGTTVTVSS VL: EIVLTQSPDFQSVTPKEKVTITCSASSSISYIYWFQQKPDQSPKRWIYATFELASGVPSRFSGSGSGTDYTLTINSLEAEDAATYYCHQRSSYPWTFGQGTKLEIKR landed at 9.11
